Recorded values, source PubChem BioAssay AID2551.

target: Nuclear receptor ROR-gamma (Mus musculus); experiment: qHTS for inhibitors of ROR gamma transcriptional activity; settings: Drosophila S2 Gal4-RORgamma UAS-luciferase reporter, 20 h; series mostly up to 53.6 µM; further: nearly all actives have a fitted effect of over 60% in size
About 17,000 (5.5%) of roughly 310,000 compounds were called active. Not shown: some 11% with an inconclusive outcome. The call rests on the fitted dose curve; in most records, active means well fitted inhibition curve with a large enough effect; inconclusive means small, poorly fitted or top-dose-only effect, or effect the other way; inactive means no such curve, though single readings can be large or run the other way. For the sample, actives were picked, then their nearest neighbours and some compounds at random.
Outcomes you can answer with include only these: label 1 = active, label 0 = inactive

# example entries with known answers
1. c1ccc2c(c1)[I+]c1ccccc1-2	label 0
2. N[C@H](C(=O)O)c1cc(=O)[nH]o1	label 0
3. Nc1ccc(-c2ccc(N)c(N)c2)cc1N	label 0
4. Cc1ccc(-n2c(O)c(C=NCC3CCCO3)c(=O)[nH]c2=O)c(C)c1 (stereo unspecified)	label 0
5. C=CC#N	label 0

Dear colleague, could you share the recorded outcome for `CC/C(=N\NC(=O)c1ccccc1O)c1c(O)n(Cc2ccccc2)c(=O)[nH]c1=O` when you have a moment?
label 1

Dear colleague, could you share the recorded outcome for `CC(C)(C)c1ccc(CN2C(=O)CN=C(c3ccccc3)c3ccccc32)cc1` when you have a moment?
label 0

Dear colleague, could you share the recorded outcome for `CCCCC/C=C\C/C=C\C/C=C\C=C\[C@H](CCCC(=O)O)OO` when you have a moment?
label 0

Dear colleague, could you share the recorded outcome for `Cc1nc2ccccn2c1P(=S)(N1CCCCC1)N1CCCCC1` when you have a moment?
label 1

Dear colleague, could you share the recorded outcome for `C/C(=C\C=C/[C@@H](C)C(=O)O)[C@H]1CN[C@H](C(=O)O)[C@@H]1CC(=O)O` when you have a moment?
label 0

Dear colleague, could you share the recorded outcome for `COc1cc(-n2c(=S)[nH]c3ccc(C)cc3c2=O)c(Cl)cc1Cl` when you have a moment?
label 1
